molecular target: 1,25-dihydroxyvitamin D(3) 24-hydroxylase, mitochondrial (Homo sapiens, UniProt Q07973); assay: Inhibition of human recombinant CYP24A1 expressed in chinese hamster V79 cells using [3H-1-beta]calcitriol after 60 mins by scintillation counting; type: ADME, cell-based
Sequence (Q07973 whole entry): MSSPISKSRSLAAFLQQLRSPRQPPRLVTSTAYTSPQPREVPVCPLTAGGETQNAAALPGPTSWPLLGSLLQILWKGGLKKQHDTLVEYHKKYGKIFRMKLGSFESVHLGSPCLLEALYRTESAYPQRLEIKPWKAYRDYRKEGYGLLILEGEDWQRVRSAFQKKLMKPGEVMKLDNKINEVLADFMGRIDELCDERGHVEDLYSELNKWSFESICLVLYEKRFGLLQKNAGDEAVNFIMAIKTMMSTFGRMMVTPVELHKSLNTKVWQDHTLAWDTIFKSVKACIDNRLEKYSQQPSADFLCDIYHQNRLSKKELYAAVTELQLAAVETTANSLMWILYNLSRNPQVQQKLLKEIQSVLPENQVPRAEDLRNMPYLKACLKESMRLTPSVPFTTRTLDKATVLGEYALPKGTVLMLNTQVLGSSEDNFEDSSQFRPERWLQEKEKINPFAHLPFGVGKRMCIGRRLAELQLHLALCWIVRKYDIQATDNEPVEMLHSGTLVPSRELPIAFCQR
Entries whose IC50 is below 10 µM take fulfilled; entries at or above 10 µM take not fulfilled.

- COMPOUND: "O=C(NCC(c1ccccc1)n1ccnc1)c1ccc(/C=C/c2ccccc2)cc1 (stereo not drawn)"
  QUALITATIVE_LABEL: "fulfilled"
- COMPOUND: "O=C(NCC(c1ccc(Cl)cc1)n1ccnc1)c1cc2ccccc2o1 (stereo not drawn)"
  QUALITATIVE_LABEL: "not fulfilled"
- COMPOUND: "O=C(NCC(c1ccccc1)n1ccnc1)c1ccc(Cc2ccccc2)cc1 (stereo not drawn)"
  QUALITATIVE_LABEL: "not fulfilled"
- COMPOUND: "COc1ccc2cc(C(=O)NCC(c3ccccc3)n3ccnc3)oc2c1 (stereo not drawn)"
  QUALITATIVE_LABEL: "not fulfilled"
- COMPOUND: "O=C(NCC(c1ccccc1)n1ccnc1)c1ccc(Br)cc1 (stereo not drawn)"
  QUALITATIVE_LABEL: "not fulfilled"
- COMPOUND: "O=C(NCC(c1ccc(F)cc1)n1ccnc1)c1cc2ccccc2o1 (stereo not drawn)"
  QUALITATIVE_LABEL: "fulfilled"
- COMPOUND: "O=C(NCC(c1ccccc1)n1ccnc1)c1cc2ccccc2o1 (stereo not drawn)"
  QUALITATIVE_LABEL: "fulfilled"
- COMPOUND: "O=C(NCC(c1ccccc1)n1ccnc1)c1cc2cc([N+](=O)[O-])ccc2o1 (stereo not drawn)"
  QUALITATIVE_LABEL: "fulfilled"
